Target Desc: PARP-1 (Homo sapiens, UniProt P09874 1-1014)
Sequence (P09874 whole entry): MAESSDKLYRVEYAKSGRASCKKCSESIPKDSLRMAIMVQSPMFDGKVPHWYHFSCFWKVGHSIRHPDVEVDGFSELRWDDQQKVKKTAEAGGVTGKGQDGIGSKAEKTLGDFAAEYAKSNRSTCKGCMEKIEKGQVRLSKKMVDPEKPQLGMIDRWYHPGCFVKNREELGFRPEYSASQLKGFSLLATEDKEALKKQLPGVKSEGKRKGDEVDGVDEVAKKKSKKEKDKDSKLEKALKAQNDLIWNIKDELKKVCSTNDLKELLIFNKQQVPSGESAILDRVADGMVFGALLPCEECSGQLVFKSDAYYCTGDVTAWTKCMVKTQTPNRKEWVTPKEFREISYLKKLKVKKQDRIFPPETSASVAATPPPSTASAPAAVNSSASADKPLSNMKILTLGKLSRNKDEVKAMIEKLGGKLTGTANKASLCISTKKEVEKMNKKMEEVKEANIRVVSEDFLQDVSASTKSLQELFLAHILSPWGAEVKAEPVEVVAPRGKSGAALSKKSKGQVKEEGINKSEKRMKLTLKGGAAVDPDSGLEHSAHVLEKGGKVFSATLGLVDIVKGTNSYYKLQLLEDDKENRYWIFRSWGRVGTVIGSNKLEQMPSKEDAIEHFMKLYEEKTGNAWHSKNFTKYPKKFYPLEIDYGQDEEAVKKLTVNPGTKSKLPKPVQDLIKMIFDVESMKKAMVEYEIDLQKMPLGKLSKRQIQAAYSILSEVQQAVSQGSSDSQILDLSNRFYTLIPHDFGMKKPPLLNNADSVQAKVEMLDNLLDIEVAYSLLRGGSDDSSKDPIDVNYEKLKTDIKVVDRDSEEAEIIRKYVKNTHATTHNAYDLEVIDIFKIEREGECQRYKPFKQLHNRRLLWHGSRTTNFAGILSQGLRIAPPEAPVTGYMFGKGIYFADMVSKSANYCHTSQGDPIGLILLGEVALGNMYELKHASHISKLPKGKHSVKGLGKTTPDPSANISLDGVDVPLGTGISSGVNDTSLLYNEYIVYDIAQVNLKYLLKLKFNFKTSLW
Protocol Notes: fluorescence anisotropy; 140 mM KCl, 8 mM MgCl2; 25 mM HEPES pH 8.0, 140 mM KCl, 8 mM MgCl2, 50 ug/ml BSA, 0.02 mM TCEP, 4% glycerol, 11.4 mM bME, 5 nM labeled DNA, 30 min room temperature, read at 25 C
Conditions Used: protein: recombinant; tags: His-tag (pET28a); parallel G4; stem-loop also possible
Measured Attribute: Kd
Express the reported value numerically, then name its unit.

Please look at this binder and report its Kd: CCCGGGCGGGCGCGAGGGAGGGGAGG (structured_DNA) [c-KIT G4DNA]
430 nM
